Experiment: Volume of distribution at steady state in Beagle dog at 0.5 mg/kg, iv and 5 mg/kg, po
Format: ADME, organism-based, Canis lupus familiaris
Conditions: in vivo, read-out: Vdss
endpoint_label: Vd

### Prompt Please give the measured Vd for this molecule: Cc1cnc(NC(=O)c2cc(Oc3cnc(C(=O)N(C)C)nc3)c3cc(C)oc3c2)cn1 [NERIGLIATIN]
### Response 0.65 L/kg

* * *

Experiment: Volume of distribution at steady state in cynomolgus monkey at 0.5 mg/kg, iv and 3 mg/kg, po
Type: ADME, organism-based, Macaca fascicularis
Conditions: in vivo, read-out: Vdss
endpoint_label: Vd
Give the number first and the unit second.

### Prompt Please give the measured Vd for this compound: Cc1cnc(NC(=O)c2cc(Oc3cnc(C(=O)N(C)C)nc3)c3cc(C)oc3c2)cn1 [NERIGLIATIN]
### Response 0.83 L/kg

* * *

Readings of solubility kinetic for the listed molecules
Experiment: Kinetic solubility of the compound
Assay type: physicochemical
Conditions: read-out: Kinetic_solubility

Before answering, review these 5 worked examples.
• Cc1cc2c(Oc3cnc(C(=O)N4CC(C)(C)C4)cn3)cc(C(=O)Nc3cnccn3)cc2o1 = 78 µM
• Cc1cnc(NC(=O)c2cc(Oc3ccc(C#N)cc3)c3cc(C)oc3c2)cn1 = 2 µM
• Cc1cnc(NC(=O)c2cc(Oc3cnc(C(=O)N4CCC4)cn3)c3cc(C)oc3c2)cn1 = 10 µM
• Cc1cnc(NC(=O)c2cc(Oc3cnc(C(=O)N(C)C)cn3)c3cc(C)oc3c2)cn1 = 176 µM
• Cc1cc2c(Oc3cnc(C(=O)N4CC5(COC5)C4)cn3)cc(C(=O)Nc3cnccn3)cc2o1 = 43 µM

### Prompt Please give the measured solubility kinetic for this molecule: `Cc1ccc(NC(=O)c2cc(Oc3cnc(C(=O)N(C)C)cn3)c3cc(C)oc3c2)nc1`
### Response 215 µM

### Prompt Next: `Cc1cc2c(Oc3cnc(C(=O)N4CC(C)(O)C4)cn3)cc(C(=O)Nc3cnccn3)cc2o1`
### Response 137 µM

### Prompt Next: `Cc1ccc(Oc2cc(C(=O)Nc3cnc(C)cn3)cc3oc(C)cc23)cc1`
### Response 18 µM

### Prompt Next: `Cc1cnc(NC(=O)c2cc(Oc3ncc(C(=O)N(C)C)cn3)c3cc(C)oc3c2)cn1`
### Response 485 µM

### Prompt Next: `Cc1cnc(NC(=O)c2cc(Oc3cnc(C(=O)N4CCCC4)cn3)c3cc(C)oc3c2)cn1`
### Response 4.5 µM

### Prompt Next: `Cc1cc2c(Oc3cnc(C(=O)N(C)C)cn3)cc(C(=O)Nc3ccn(C)n3)cc2o1`
### Response 540 µM

### Prompt Next: `COC1CN(C(=O)c2cnc(Oc3cc(C(=O)Nc4cnccn4)cc4oc(C)cc34)cn2)C1`
### Response 158 µM

### Prompt Next: `Cc1cnc(NC(=O)c2cc(Oc3ccc(S(C)(=O)=O)cc3)c3cc(C)oc3c2)cn1`
### Response 3 µM

* * *

Assay: Oral bioavailability in female Sprague-Dawley rat at 1 mg/kg
Type: ADME, organism-based
Settings: in vivo
endpoint_label: bioavailability (%)
Numeric answer only, unit % assumed.

### Prompt Please give the measured bioavailability for this compound: `Cc1cnc(NC(=O)c2cc(Oc3cnc(C(=O)N(C)C)nc3)c3cc(C)oc3c2)cn1`
### Response 77

* * *

Target: hERG (KCNH2) (Homo sapiens)
Test: Inhibition of dofetilide binding to human ERG at 10 uM relative to control
Conditions: probe dofetilide
endpoint_label: inhibition at 10 µM
Give the number first and the unit second.

• Cc1ccc(NC(=O)c2cc(Oc3cnc(C(=O)N(C)C)cn3)c3cc(C)oc3c2)nc1 = 2%
• CNC(=O)c1cnc(Oc2cc(C(=O)Nc3cnc(C)cn3)cc3oc(C)cc23)cn1 = 0%
• COc1cnc(NC(=O)c2cc(Oc3cnc(C(=O)N(C)C)cn3)c3cc(C)oc3c2)cn1 = 6%
• Cc1cc2c(Oc3cnc(C(=O)N(C)C)cn3)cc(C(=O)Nc3cnc(C(F)(F)F)cn3)cc2o1 = 18%

// next item, inhibition at 10 µM requested
### Prompt Please give the measured inhibition at 10 µM for this compound: `Cc1cc2c(Oc3cnc(C(=O)N(C)C)cn3)cc(C(=O)Nc3ncccn3)cc2o1`
### Response 4%

* * *

Molecular target: Hexokinase-4 (Rattus norvegicus, UniProt P17712)
Sequence (P17712 whole entry): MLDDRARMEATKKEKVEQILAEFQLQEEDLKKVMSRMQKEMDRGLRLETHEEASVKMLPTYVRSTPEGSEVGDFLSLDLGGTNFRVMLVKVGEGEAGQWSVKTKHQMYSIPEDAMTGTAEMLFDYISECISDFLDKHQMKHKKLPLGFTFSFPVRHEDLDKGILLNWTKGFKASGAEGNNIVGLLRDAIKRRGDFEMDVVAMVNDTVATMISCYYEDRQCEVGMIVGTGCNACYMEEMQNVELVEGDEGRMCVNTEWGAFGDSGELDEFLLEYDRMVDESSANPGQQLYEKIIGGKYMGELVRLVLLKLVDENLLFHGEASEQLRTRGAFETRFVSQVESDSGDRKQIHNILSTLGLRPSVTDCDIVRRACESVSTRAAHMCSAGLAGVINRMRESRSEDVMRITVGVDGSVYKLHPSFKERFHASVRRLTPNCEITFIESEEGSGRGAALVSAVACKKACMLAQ
Assay: Activation of rat glucokinase
Param label: returns rule met when EC50 < 100 nM, returns rule not met otherwise, including exact equality.

These solved cases illustrate the format of a correct answer.
• COCc1ccc(Oc2cc3[nH]c(-c4ccccn4)nc3cc2[C@H]2CCCN2C(C)=O)cn1 = rule not met
• COc1ccc2nc(NC(=O)[C@H](CC3CCCC3)c3ccc(S(=O)(=O)N4CCN(C)CC4)cc3)sc2n1 = rule not met
• CS(=O)(=O)c1ccc([C@@H](CC2CCCC2)C(=O)Nc2nccs2)cc1 = rule not met

--- query ---
### Prompt Hi there! Is EC50 for `Cn1ccc(NC(=O)c2cc(Oc3ccc(C(=O)N4CCC4)c(F)c3)c3c(c2)OC(C)(C)C3)n1` below 100 nM, do you know?
### Response rule met

* * *

Test: Oral bioavailability in cynomolgus monkey at 3 mg/kg
Type: ADME, organism-based, Macaca fascicularis
Conditions: in vivo
endpoint_label: bioavailability (%)
Numeric answer only, unit % assumed.

### Prompt Please give the measured bioavailability for this compound: `Cc1cnc(NC(=O)c2cc(Oc3cnc(C(=O)N(C)C)nc3)c3cc(C)oc3c2)cn1`
### Response 78

* * *

Test: Drug excretion in bile duct-cannulated rat bile assessed as parent compound level at 5 mg/kg, iv
Format: ADME, organism-based
Parameters: dose 5 mg/kg, route intravenous
Settings: read-out: Drug excretion
endpoint_label: dose excreted
Give the number first and the unit second.

### Prompt Please give the measured dose excreted for this compound: Cc1cnc(NC(=O)c2cc(Oc3cnc(C(=O)N(C)C)nc3)c3cc(C)oc3c2)cn1 [NERIGLIATIN]
### Response 2.3%

* * *

Readings of CLint scaled for the listed compounds
Experiment: Intrinsic clearance in human liver microsomes
Format: ADME
Details: read-out: CLH
Numeric answer only, unit mL/min/kg assumed.

- Cc1cc2c(Oc3cnc(C(=O)N(C)C)cn3)cc(C(=O)Nc3cnc(C(F)(F)F)cn3)cc2o1: 16.1

### Prompt Please give the measured CLint scaled for this compound: `Cc1cc2c(Oc3cnc(C(=O)N4CC(C)(C)C4)cn3)cc(C(=O)Nc3cnccn3)cc2o1`
### Response 21.2

### Prompt Next: `Cc1cnc(NC(=O)c2cc(Oc3ccc(S(C)(=O)=O)cc3)c3cc(C)oc3c2)cn1`
### Response 13

### Prompt Next: `CNC(=O)c1cnc(Oc2cc(C(=O)Nc3cnc(C)cn3)cc3oc(C)cc23)cn1`
### Response 10.1

### Prompt Next: `Cc1cnc(NC(=O)c2cc(Oc3ccc(C#N)cc3)c3cc(C)oc3c2)cn1`
### Response 29

### Prompt Next: `Cc1cc2c(Oc3cnc(C(=O)N4CC5(COC5)C4)cn3)cc(C(=O)Nc3cnccn3)cc2o1`
### Response 12.9

### Prompt Next: `Cc1cnc(NC(=O)c2cc(Oc3ccc(C(=O)N(C)C)cc3)c3cc(C)oc3c2)cn1`
### Response 17

### Prompt Next: `Cc1cnc(NC(=O)c2cc(Oc3cnc(C(=O)N4CCCCC4)cn3)c3cc(C)oc3c2)cn1`
### Response 18.2

### Prompt Next: `Cc1ccc(Oc2cc(C(=O)Nc3cnc(C)cn3)cc3oc(C)cc23)cc1`
### Response 47

### Prompt Next: `Cc1cnc(NC(=O)c2cc(Oc3ccc(C(=O)N(C)C)nc3)c3cc(C)oc3c2)cn1`
### Response 11.6

### Prompt Next: `CCc1cnc(NC(=O)c2cc(Oc3cnc(C(=O)N(C)C)cn3)c3cc(C)oc3c2)cn1`
### Response 12.2

### Prompt Next: `Cc1cc2c(Oc3cnc(C(=O)N(C)C)cn3)cc(C(=O)Nc3cnccn3)cc2o1`
### Response 15

* * *

Experiment: Half life in Beagle dog at 0.5 mg/kg, iv and 5 mg/kg, po
Assay type: ADME, organism-based, Canis lupus familiaris
Conditions: in vivo
endpoint_label: half-life (h)
Numeric answer only, unit h assumed.

### Prompt Please give the measured half-life for this molecule: `Cc1cnc(NC(=O)c2cc(Oc3cnc(C(=O)N(C)C)nc3)c3cc(C)oc3c2)cn1`
### Response 3.3

* * *

Experiment: Half life in female Sprague-Dawley rat at 1 mg/kg, iv and po
Type: ADME, organism-based
Design: dose 1 mg/kg, route oral
Settings: in vivo
endpoint_label: half-life (h)
Numeric answer only, unit h assumed.

### Prompt Please give the measured half-life for this compound: `Cc1cnc(NC(=O)c2cc(Oc3cnc(C(=O)N(C)C)nc3)c3cc(C)oc3c2)cn1`
### Response 1.2

* * *

Readings of inhibition at 10 µM for the listed compounds
Biological target: hERG (KCNH2) (Homo sapiens, UniProt Q12809)
Sequence (Q12809 whole entry): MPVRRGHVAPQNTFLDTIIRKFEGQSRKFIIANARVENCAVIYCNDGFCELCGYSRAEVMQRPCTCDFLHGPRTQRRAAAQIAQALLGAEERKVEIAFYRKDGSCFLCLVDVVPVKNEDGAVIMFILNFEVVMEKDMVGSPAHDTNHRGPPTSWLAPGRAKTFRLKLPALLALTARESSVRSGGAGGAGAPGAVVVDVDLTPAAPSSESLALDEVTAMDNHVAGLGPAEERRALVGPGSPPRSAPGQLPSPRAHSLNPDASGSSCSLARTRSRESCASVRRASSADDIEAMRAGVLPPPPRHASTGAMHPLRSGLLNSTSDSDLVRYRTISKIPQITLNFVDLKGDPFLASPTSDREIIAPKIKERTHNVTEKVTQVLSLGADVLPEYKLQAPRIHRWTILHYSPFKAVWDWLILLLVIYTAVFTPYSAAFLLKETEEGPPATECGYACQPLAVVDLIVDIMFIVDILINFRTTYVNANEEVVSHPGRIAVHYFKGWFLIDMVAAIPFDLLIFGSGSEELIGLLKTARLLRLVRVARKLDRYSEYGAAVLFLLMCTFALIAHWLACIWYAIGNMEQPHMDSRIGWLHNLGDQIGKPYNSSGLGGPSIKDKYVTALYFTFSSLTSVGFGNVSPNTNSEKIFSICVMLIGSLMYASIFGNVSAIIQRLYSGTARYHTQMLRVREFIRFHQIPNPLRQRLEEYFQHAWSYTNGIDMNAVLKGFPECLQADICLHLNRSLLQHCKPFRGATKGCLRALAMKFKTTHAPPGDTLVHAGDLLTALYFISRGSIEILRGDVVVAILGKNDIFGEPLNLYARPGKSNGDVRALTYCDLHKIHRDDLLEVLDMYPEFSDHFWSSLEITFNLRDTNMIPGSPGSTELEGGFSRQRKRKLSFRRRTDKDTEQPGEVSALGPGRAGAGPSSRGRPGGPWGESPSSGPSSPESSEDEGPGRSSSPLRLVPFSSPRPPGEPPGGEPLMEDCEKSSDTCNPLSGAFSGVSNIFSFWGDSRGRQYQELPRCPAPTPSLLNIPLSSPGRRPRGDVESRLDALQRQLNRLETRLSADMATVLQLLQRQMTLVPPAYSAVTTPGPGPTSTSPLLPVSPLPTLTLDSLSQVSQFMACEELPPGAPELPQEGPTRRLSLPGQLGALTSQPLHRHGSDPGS
Assay: Inhibition of dofetilide binding to human ERG at 10 uM relative to control
Details: probe dofetilide
Give the number first and the unit second.

Before answering, review these 3 worked examples.
* Cc1cnc(NC(=O)c2cc(Oc3cnc(C(=O)N4CCCCC4)cn3)c3cc(C)oc3c2)cn1 | 5%
* Cc1cc2c(Oc3cnc(C(=O)N(C)C)cn3)cc(C(=O)Nc3ccn(C)n3)cc2o1 | 8%
* Cc1cnc(NC(=O)c2cc(Oc3cnc(C(=O)N4CCC4)cn3)c3cc(C)oc3c2)cn1 | 4%

### Prompt Please give the measured inhibition at 10 µM for this compound: `Cc1cnc(NC(=O)c2cc(Oc3cnc(C(=O)N4CCCC4)cn3)c3cc(C)oc3c2)cn1`
### Response 6%

### Prompt Next: `Cc1cnc(NC(=O)c2cc(Oc3ccc(C(=O)N(C)C)nc3)c3cc(C)oc3c2)cn1`
### Response 5%

### Prompt Next: `Cc1cc2c(Oc3cnc(C(=O)N4CC(C)C4)cn3)cc(C(=O)Nc3cnccn3)cc2o1`
### Response 11%

### Prompt Next: `Cc1cc2c(Oc3cnc(C(=O)N(C)C)cn3)cc(C(=O)Nc3cnccn3)cc2o1`
### Response 60%

### Prompt Next: `CCN(C)C(=O)c1cnc(Oc2cc(C(=O)Nc3cnc(C)cn3)cc3oc(C)cc23)cn1`
### Response 6%

### Prompt Next: `Cc1cc2c(Oc3cnc(C(=O)N4CC(C)(O)C4)cn3)cc(C(=O)Nc3cnccn3)cc2o1`
### Response 10%

### Prompt Next: `COC1CN(C(=O)c2cnc(Oc3cc(C(=O)Nc4cnccn4)cc4oc(C)cc34)cn2)C1`
### Response 38%

### Prompt Next: `Cc1cnc(NC(=O)c2cc(Oc3ncc(C(=O)N(C)C)cn3)c3cc(C)oc3c2)cn1`
### Response 0%
